Hey, just so you know, these numbers are from the kinase profiling compilation of Christmann-Franck et al. (2016).

Target System: FLT3 (human) (UniProt P36888)
Sequence (P36888 whole entry, looked up): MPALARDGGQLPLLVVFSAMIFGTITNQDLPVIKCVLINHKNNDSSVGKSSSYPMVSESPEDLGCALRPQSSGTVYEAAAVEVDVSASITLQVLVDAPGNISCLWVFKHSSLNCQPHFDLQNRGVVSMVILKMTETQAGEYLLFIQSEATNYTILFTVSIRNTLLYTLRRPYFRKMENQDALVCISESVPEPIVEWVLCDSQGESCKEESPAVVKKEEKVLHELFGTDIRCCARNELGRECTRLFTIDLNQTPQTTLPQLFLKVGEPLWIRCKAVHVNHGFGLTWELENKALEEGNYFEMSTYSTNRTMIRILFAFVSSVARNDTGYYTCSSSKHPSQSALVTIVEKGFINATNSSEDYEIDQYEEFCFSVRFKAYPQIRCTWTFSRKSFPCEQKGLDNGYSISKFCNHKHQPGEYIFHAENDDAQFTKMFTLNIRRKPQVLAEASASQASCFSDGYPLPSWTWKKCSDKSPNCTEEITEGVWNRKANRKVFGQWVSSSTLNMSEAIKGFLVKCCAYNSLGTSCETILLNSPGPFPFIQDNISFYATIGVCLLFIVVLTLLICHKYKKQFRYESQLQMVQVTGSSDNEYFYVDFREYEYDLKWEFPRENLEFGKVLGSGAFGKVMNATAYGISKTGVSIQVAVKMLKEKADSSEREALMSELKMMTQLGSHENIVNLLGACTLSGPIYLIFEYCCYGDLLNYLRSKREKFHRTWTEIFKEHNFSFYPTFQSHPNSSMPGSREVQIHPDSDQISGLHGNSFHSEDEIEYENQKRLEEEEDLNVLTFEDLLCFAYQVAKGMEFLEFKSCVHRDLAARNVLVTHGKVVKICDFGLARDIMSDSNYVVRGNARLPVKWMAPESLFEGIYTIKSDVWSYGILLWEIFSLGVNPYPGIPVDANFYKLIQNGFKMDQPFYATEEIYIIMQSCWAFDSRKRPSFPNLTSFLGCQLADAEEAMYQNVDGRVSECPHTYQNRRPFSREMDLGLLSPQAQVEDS
Procedure Summary: KINOMEscan competition binding
Reported Conditions: compound 10.0 µM
Hi! Could you tag entries with kinase still bound, per cent of control below 70% as Y, and those at or above as N? Much appreciated.

[in] kinase still bound, per cent of control strictly < 70% for this compound? "Cc1cc([C@@H](C)Nc2ccccc2C(=O)O)c2nc(N3CCOCC3)cc(=O)n2c1"
[out] Y

[in] kinase still bound, per cent of control strictly < 70% for this compound? "CCN1CCN(Cc2ccc(Nc3ncc4c(n3)N(C)c3ccccc3C(=O)N4C)cc2C(F)(F)F)CC1"
[out] N

[in] kinase still bound, per cent of control strictly < 70% for this compound? "C=CC(=O)Nc1cccc(Nc2nc(N[C@H]3CC[C@H](N(C)C)CC3)nc3c2ncn3C(C)C)c1"
[out] Y

[in] kinase still bound, per cent of control strictly < 70% for this compound? "CC[C@@H]1C(=O)N(C)c2cnc(Nc3ccc(C(=O)NC4CCN(C)CC4)cc3OC)nc2N1C1CCCC1"
[out] N

[in] kinase still bound, per cent of control strictly < 70% for this compound? "OCCCNc1cc(-c2ccnc(Nc3cccc(Cl)c3)n2)ccn1"
[out] N

[in] kinase still bound, per cent of control strictly < 70% for this compound? "C=CC(=O)Nc1cc(NC(=O)c2ccc(C)c(NC(=O)c3ccno3)c2)cc(C(F)(F)F)c1"
[out] N

[in] kinase still bound, per cent of control strictly < 70% for this compound? "O=C1Nc2ccc(I)cc2/C1=C/c1cc(Br)c(O)c(Br)c1"
[out] Y

[in] kinase still bound, per cent of control strictly < 70% for this compound? "CCOc1cc2ncc(C#N)c(Nc3ccc(OCc4ccccn4)c(Cl)c3)c2cc1NC(=O)/C=C/CN(C)C"
[out] N

[in] kinase still bound, per cent of control strictly < 70% for this compound? "CN(C)C/C=C/C(=O)Nc1cccc(Nc2ncc3c(n2)N(C)c2ccccc2C(=O)N3C)c1"
[out] N

[in] kinase still bound, per cent of control strictly < 70% for this compound? COc1cc(C(=O)NC2CCN(C)CC2)ccc1Nc1ncc2c(n1)N(C1CCCC1)C(C)CC(=O)N2C (centres undefined)
[out] N

[in] kinase still bound, per cent of control strictly < 70% for this compound? "C[C@@H](Oc1cc(-n2cnc3ccc(CN4CCN(C)CC4)cc32)sc1C(N)=O)c1ccccc1C(F)(F)F"
[out] Y

[in] kinase still bound, per cent of control strictly < 70% for this compound? "Cc1ccc(NC(=O)c2cccc(C(C)(C)C#N)c2)cc1Nc1ccc2ncn(C)c(=O)c2c1"
[out] Y

[in] kinase still bound, per cent of control strictly < 70% for this compound? "Cn1c(=O)n(-c2ccc(C(C)(C)C#N)cc2)c2c3cc(-c4cnc5ccccc5c4)ccc3ncc21"
[out] N

[in] kinase still bound, per cent of control strictly < 70% for this compound? "COc1cc(N2CCN(C)CC2)ccc1Nc1nc(N)c(C(=O)c2c(Cl)cccc2Cl)s1"
[out] N

----------
Target System: NEK5 (human) (UniProt Q6P3R8)
Sequence (Q6P3R8 whole entry, looked up): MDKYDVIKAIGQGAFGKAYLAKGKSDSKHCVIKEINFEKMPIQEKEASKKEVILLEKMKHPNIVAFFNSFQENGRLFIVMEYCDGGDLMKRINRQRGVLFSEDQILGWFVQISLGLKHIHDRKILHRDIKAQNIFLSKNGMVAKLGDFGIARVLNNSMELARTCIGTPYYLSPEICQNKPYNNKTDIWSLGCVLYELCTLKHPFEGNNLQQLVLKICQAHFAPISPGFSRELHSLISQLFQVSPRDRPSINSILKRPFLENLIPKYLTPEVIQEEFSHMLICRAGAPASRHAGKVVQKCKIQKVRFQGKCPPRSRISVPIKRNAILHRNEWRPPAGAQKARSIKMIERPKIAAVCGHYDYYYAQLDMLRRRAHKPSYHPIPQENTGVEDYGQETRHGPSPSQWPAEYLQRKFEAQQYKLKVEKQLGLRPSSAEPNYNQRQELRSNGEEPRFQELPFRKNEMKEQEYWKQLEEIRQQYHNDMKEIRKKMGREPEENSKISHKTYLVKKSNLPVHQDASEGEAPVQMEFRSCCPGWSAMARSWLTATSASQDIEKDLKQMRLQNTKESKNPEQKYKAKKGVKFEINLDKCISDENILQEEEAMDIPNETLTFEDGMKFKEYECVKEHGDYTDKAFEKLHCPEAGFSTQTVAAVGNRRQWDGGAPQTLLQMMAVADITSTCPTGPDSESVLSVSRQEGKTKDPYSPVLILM
Procedure Summary: KINOMEscan competition binding
Reported Conditions: compound 10.0 µM
Measurement Kind: kinase still bound, per cent of control (%)
Please give a number only; it is taken to be in %.

[in] Please report the measured kinase still bound, per cent of control for "Cc1ccc(C(=O)Nc2cccc(C(F)(F)F)c2)cc1Nc1cncc(C(N)=O)c1"
[out] 100

[in] Please report the measured kinase still bound, per cent of control for "Cc1cc([C@@H](C)Nc2ccccc2C(=O)O)c2nc(N3CCOCC3)cc(=O)n2c1"
[out] 100

[in] Please report the measured kinase still bound, per cent of control for "C=CC(=O)Nc1cccc(Nc2nc(N[C@H]3CC[C@H](N(C)C)CC3)nc3c2ncn3C(C)C)c1"
[out] 94

----------
Field: kinase still bound, per cent of control. Provide a value for each of the compounds that follow.
Target System: NIM1 (human)
Procedure Summary: KINOMEscan competition binding
Reported Conditions: compound 10.0 µM

[in] Please report the measured kinase still bound, per cent of control for "CCCS(=O)(=O)Nc1ccc(F)c(C(=O)c2c[nH]c3ncc(-c4ccc(Cl)cc4)cc23)c1F"
[out] 100%

[in] Please report the measured kinase still bound, per cent of control for "OCCCNc1cc(-c2ccnc(Nc3cccc(Cl)c3)n2)ccn1"
[out] 100%

[in] Please report the measured kinase still bound, per cent of control for "Nc1ccc(-c2ccc3ncc4ccc(=O)n(-c5cccc(C(F)(F)F)c5)c4c3c2)cn1"
[out] 100%

----------
Field: kinase still bound, per cent of control. Provide a value for each of the molecules that follow.
Target System: PRKG2 (human)
Procedure Summary: KINOMEscan competition binding
Reported Conditions: compound 10.0 µM
Please give a number only; it is taken to be in %.

[in] Please report the measured kinase still bound, per cent of control for "Cc1ccc(NC(=O)c2cccc(C(C)(C)C#N)c2)cc1Nc1ccc2ncn(C)c(=O)c2c1"
[out] 100

[in] Please report the measured kinase still bound, per cent of control for "O=C(NOC[C@H](O)CO)c1ccc(F)c(F)c1Nc1ccc(I)cc1F"
[out] 86

[in] Please report the measured kinase still bound, per cent of control for "Cc1cc([C@@H](C)Nc2ccccc2C(=O)O)c2nc(N3CCOCC3)cc(=O)n2c1"
[out] 98

----------
Field: kinase still bound, per cent of control. Provide a value for each of the compounds that follow.
Target System: PRKACA (human)
Procedure Summary: KINOMEscan competition binding
Reported Conditions: compound 10.0 µM
Please give a number only; it is taken to be in %.

[in] Please report the measured kinase still bound, per cent of control for "Cc1ccc2nc(NCCN)c3ncc(C)n3c2c1" tested on PRKACA (human).
[out] 100

[in] Please report the measured kinase still bound, per cent of control for "O=C(NOC[C@H](O)CO)c1ccc(F)c(F)c1Nc1ccc(I)cc1F" tested on PRKACA (human).
[out] 72

[in] Please report the measured kinase still bound, per cent of control for "CCC(=O)N1CCN(c2ccc(-n3c(=O)ccc4cnc5ccc(-c6cnc7ccccc7c6)cc5c43)cc2C(F)(F)F)CC1" tested on PRKACA (human).
[out] 79

[in] Please report the measured kinase still bound, per cent of control for "C[C@@H](Oc1cc(-n2cnc3ccc(CN4CCN(C)CC4)cc32)sc1C(N)=O)c1ccccc1C(F)(F)F" tested on PRKACA (human).
[out] 100

----------
Target System: TYK2 JH1 catalytic (human) (UniProt P29597)
Sequence (P29597 whole entry, looked up): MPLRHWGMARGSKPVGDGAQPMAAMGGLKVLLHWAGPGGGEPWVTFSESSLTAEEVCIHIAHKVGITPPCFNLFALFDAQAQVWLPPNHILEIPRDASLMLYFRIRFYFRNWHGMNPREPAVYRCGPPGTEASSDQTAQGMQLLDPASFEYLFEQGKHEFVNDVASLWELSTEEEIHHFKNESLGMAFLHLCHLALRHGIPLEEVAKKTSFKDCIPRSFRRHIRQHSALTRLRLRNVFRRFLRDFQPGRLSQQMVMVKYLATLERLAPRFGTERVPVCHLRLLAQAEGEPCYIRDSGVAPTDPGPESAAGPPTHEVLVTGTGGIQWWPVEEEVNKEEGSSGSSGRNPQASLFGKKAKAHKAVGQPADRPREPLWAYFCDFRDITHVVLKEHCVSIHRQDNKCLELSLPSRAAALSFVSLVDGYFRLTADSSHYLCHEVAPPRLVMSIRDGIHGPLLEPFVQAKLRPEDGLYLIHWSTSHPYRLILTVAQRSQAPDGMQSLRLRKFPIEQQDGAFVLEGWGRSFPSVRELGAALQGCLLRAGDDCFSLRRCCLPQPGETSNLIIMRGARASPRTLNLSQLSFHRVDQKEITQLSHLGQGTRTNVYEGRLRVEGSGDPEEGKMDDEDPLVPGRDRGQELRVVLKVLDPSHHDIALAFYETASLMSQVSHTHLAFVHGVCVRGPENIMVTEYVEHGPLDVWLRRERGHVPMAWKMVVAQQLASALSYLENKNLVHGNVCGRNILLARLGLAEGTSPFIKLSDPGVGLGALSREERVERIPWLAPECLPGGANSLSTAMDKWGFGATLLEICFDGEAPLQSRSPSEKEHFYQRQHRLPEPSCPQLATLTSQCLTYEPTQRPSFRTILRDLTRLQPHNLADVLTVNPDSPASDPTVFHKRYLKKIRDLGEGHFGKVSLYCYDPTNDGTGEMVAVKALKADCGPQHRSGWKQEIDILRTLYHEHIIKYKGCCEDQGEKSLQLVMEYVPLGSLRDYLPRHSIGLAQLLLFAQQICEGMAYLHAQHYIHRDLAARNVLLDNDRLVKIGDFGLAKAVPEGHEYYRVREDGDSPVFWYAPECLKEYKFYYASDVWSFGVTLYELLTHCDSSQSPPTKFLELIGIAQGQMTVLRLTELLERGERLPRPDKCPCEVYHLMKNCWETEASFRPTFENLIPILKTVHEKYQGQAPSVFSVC
Procedure Summary: KINOMEscan competition binding
Reported Conditions: compound 10.0 µM
Measurement Kind: kinase still bound, per cent of control (%)
Please give a number only; it is taken to be in %.

[in] Please report the measured kinase still bound, per cent of control for "CN(C)C/C=C/C(=O)Nc1cccc(Nc2ncc3c(n2)N(C)c2ccccc2C(=O)N3C)c1"
[out] 5

[in] Please report the measured kinase still bound, per cent of control for "O=C(NOC[C@H](O)CO)c1ccc(F)c(F)c1Nc1ccc(I)cc1F"
[out] 100

[in] Please report the measured kinase still bound, per cent of control for "Cc1ccc2nc(NCCN)c3ncc(C)n3c2c1"
[out] 100

----------
System: ABL1 (human), P00519 [T315I]
Procedure Summary: KINOMEscan competition binding
Reported Conditions: compound 10.0 µM
Measurement Kind: kinase still bound, per cent of control (%)
Please give a number only; it is taken to be in %.

[in] Please report the measured kinase still bound, per cent of control for "CCN(CC)CCCCNc1ncc2c(n1)N(C)C(=O)N(c1c(Cl)c(OC)cc(OC)c1Cl)C2"
[out] 100

[in] Please report the measured kinase still bound, per cent of control for "OCCCNc1cc(-c2ccnc(Nc3cccc(Cl)c3)n2)ccn1"
[out] 100

[in] Please report the measured kinase still bound, per cent of control for "COc1cc(C(=O)NC2CCN(C)CC2)ccc1Nc1ncc2c(n1)N(C1CCCC1)CCC(=O)N2C(C)C"
[out] 100

[in] Please report the measured kinase still bound, per cent of control for "CCN(CC)CCCCNc1ncc2cc(-c3cc(OC)cc(OC)c3)c(NC(=O)NC(C)(C)C)nc2n1"
[out] 100

[in] Please report the measured kinase still bound, per cent of control for "COc1ccc(N(C(=O)Oc2cc(C(=O)Nc3cccc(C(F)(F)F)c3)ccc2C)c2ccnc(Nc3ccc(N4CCN(C)CC4)cc3)n2)c(OC)c1"
[out] 0.45

[in] Please report the measured kinase still bound, per cent of control for "Cc1n[nH]c2ccc(-c3cncc(OC[C@@H](N)Cc4c[nH]c5ccccc45)c3)cc12"
[out] 100

[in] Please report the measured kinase still bound, per cent of control for "CC[C@@H]1C(=O)N(C)c2cnc(Nc3ccc(C(=O)NC4CCN(C)CC4)cc3OC)nc2N1C1CCCC1"
[out] 100

[in] Please report the measured kinase still bound, per cent of control for "C=CC(=O)Nc1cccc(Oc2nc(Nc3ccc(N4CCN(C)CC4)cc3OC)ncc2Cl)c1"
[out] 100

[in] Please report the measured kinase still bound, per cent of control for COc1cc(C(=O)NC2CCN(C)CC2)ccc1Nc1ncc2c(n1)N(C1CCCC1)C(C)CC(=O)N2C (stereo not drawn)
[out] 100

[in] Please report the measured kinase still bound, per cent of control for "CNC(=O)c1ccc(Nc2cc(Nc3ccccc3S(=O)(=O)C(C)C)c3cc[nH]c3n2)nc1"
[out] 0

[in] Please report the measured kinase still bound, per cent of control for "CCOc1cc(N2CCC(O)CC2)ccc1Nc1ncc2c(n1)N(C)c1ccccc1C(=O)N2C"
[out] 100

[in] Please report the measured kinase still bound, per cent of control for "Cc1cn(-c2cc(C(=O)Nc3ccc(C)c(NC(=O)c4ccno4)c3)cc(C(F)(F)F)c2)cn1"
[out] 100

[in] Please report the measured kinase still bound, per cent of control for "Cc1ccc(C(=O)Nc2cccc(C(F)(F)F)c2)cc1Nc1cncc(C(N)=O)c1"
[out] 100
